# targetSystem: Mu-type opioid receptor (Cavia porcellus, UniProt P97266)
# Sequence (P97266 whole entry): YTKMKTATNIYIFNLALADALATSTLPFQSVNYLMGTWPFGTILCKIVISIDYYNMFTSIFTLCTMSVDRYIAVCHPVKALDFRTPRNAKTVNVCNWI
# methodDescription: In vitro inhibition of electrically evoked contractions in guinea pig ileum longitudinal muscle myenteric plexus
measure: IC50 (µM)
One number for each entry, in µM.

Solved entries:
[
  {
    "compound": "CCCC[C@H](NC(=O)[C@H]1NC(=O)[C@H](Cc2c[nH]cn2)NC(=O)C(Cc2ccccc2)NC(=O)[C@H](NC(=O)[C@@H](N)Cc2ccc(O)cc2)C(C)(C)SSC1(C)C)C(=O)N[C@@H](CC(=O)O)C(N)=O (single isomer, unassigned)",
    "IC50 (µM)": 22
  },
  {
    "compound": "CC(C)C(NC(=O)[C@H]1NC(=O)[C@H](CCC(=O)O)NC(=O)C(Cc2ccccc2)NC(=O)[C@H](NC(=O)[C@@H](N)Cc2ccc(O)cc2)C(C)(C)SSC1(C)C)C(=O)NCC(N)=O (single isomer, unassigned)",
    "IC50 (µM)": 7.1
  },
  {
    "compound": "CCCC[C@H](NC(=O)[C@H]1NC(=O)[C@H](CC(=O)O)NC(=O)C(Cc2ccccc2)NC(=O)[C@H](NC(=O)[C@@H](N)Cc2ccc(O)cc2)C(C)(C)SSC1(C)C)C(=O)NCC(N)=O (single isomer, unassigned)",
    "IC50 (µM)": 137
  },
  {
    "compound": "CC(C)C(NC(=O)[C@H]1NC(=O)[C@H](CO)NC(=O)C(Cc2ccccc2)NC(=O)[C@H](NC(=O)[C@@H](N)Cc2ccc(O)cc2)C(C)(C)SSC1(C)C)C(=O)NCC(N)=O (single isomer, unassigned)",
    "IC50 (µM)": 13.5
  },
  {
    "compound": "CC(C)[C@H](NC(=O)[C@@H]1NC(=O)[C@H](CC(=O)O)NC(=O)[C@H](Cc2ccccc2)NC(=O)[C@H](NC(=O)[C@@H](N)Cc2ccc(O)cc2)C(C)(C)SSC1(C)C)C(=O)NCC(N)=O",
    "IC50 (µM)": 5.5
  },
  {
    "compound": "CC(C)[C@H](NC(=O)[C@H]1NC(=O)[C@H](CC(=O)O)NC(=O)[C@H](Cc2ccccc2)NC(=O)[C@H](NC(=O)[C@@H](N)Cc2ccc(O)cc2)CSSC1(C)C)C(=O)NCC(N)=O",
    "IC50 (µM)": 1.1
  },
  {
    "compound": "CCCC[C@H](NC(=O)[C@H]1NC(=O)[C@H](Cc2c[nH]cn2)NC(=O)C(Cc2ccccc2)NC(=O)[C@H](NC(=O)[C@@H](N)Cc2ccc(O)cc2)C(C)(C)SSC1(C)C)C(=O)N[C@@H](CC(=O)O)C(=O)O (single isomer, unassigned)",
    "IC50 (µM)": 4.5
  },
  {
    "compound": "CC(C)[C@H](NC(=O)[C@H](CC(=O)O)NC(=O)[C@H](Cc1ccccc1)NC(=O)[C@@H](C)NC(=O)[C@@H](N)Cc1ccc(O)cc1)C(=O)N[C@H](C(=O)NCC(N)=O)C(C)C (stereo in doubt; form 1) [DELTORPHIN C]",
    "IC50 (µM)": 2.89
  },
  {
    "compound": "CSCCC(NC(=O)[C@H](CC(C)C)NC(=O)[C@H](Cc1c[nH]cn1)NC(=O)[C@H](Cc1ccccc1)NC(=O)C(CCSC)NC(=O)[C@@H](N)Cc1ccc(O)cc1)C(=O)N[C@@H](CC(=O)O)C(N)=O (stereo in doubt)",
    "IC50 (µM)": 3.4
  }
]

Next compound, IC50 to be filled in.
Find the measured IC50: item CC(C)[C@H](NC(=O)[C@H]1NC(=O)[C@H](CC(=O)O)NC(=O)[C@H](Cc2ccccc2)NC(=O)[C@H](NC(=O)[C@@H](N)Cc2ccc(O)cc2)C(C)(C)SSC1(C)C)C(=O)NCC(N)=O , target or system Mu-type opioid receptor (Cavia porcellus, UniProt P97266).
68
